- study_system: HLA-DR DRB1*0405 (human)
- test_description: radioligand binding
observed_property: IC50 (nM)

NPILLWQPIPVHTVPLSEDQ [PAP_(133-152)]	164
KSEEFQKRLHPYKDFIATLG [PAP_(173-192)]	211
